Where these numbers come from: ChEMBL document CHEMBL5360554

Molecular target: Keap1/Nrf2 (Homo sapiens) (UniProt Q16236+Q14145)
Assay: Inhibition of Keap1-Nrf2 protein-protein interaction in human NCM460D cells assessed as increase in HMOX1 gene expression at 100 uM by RT-qPCR analysis
Assay type: cell-based
Calls of active or inactive are those of the source. No cut-off for these calls is given here.
Labels: active, inactive

SUBSTANCE_SMILES | EXPERIMENTAL_SYSTEM | CLASS_LABEL
COc1ccc(S(=O)(=O)N(CC(=O)O)c2cc(-c3ccc(C#N)cc3)c(N(CC(=O)O)S(=O)(=O)c3ccc(OC)cc3)c3ccccc23)cc1 | Keap1/Nrf2 (Homo sapiens) (UniProt Q16236+Q14145) | inactive
COc1ccc(S(=O)(=O)N(CC(=O)O)c2cc(CCCN3C(=O)c4ccccc4C3=O)c(N(CC(=O)O)S(=O)(=O)c3ccc(OC)cc3)c3ccccc23)cc1 | Keap1/Nrf2 (Homo sapiens) (UniProt Q16236+Q14145) | active
COc1ccc(-c2cc(N(CC(=O)O)S(=O)(=O)c3ccc(OC)cc3)c3ccccc3c2N(CC(=O)O)S(=O)(=O)c2ccc(OC)cc2)cc1 | Keap1/Nrf2 (Homo sapiens) (UniProt Q16236+Q14145) | active
COc1ccc(S(=O)(=O)N(CC(=O)O)c2cc(-c3ccc(N4C(=O)c5ccccc5C4=O)cc3)c(N(CC(=O)O)S(=O)(=O)c3ccc(OC)cc3)c3ccccc23)cc1 | Keap1/Nrf2 (Homo sapiens) (UniProt Q16236+Q14145) | active
COc1ccc(S(=O)(=O)N(CC(=O)O)c2cc(CCC(=O)N3CCOCC3)c(N(CC(=O)O)S(=O)(=O)c3ccc(OC)cc3)c3ccccc23)cc1 | Keap1/Nrf2 (Homo sapiens) (UniProt Q16236+Q14145) | active

====

Target: Keap1/Nrf2 (Homo sapiens)
Sequence (Q16236 whole entry): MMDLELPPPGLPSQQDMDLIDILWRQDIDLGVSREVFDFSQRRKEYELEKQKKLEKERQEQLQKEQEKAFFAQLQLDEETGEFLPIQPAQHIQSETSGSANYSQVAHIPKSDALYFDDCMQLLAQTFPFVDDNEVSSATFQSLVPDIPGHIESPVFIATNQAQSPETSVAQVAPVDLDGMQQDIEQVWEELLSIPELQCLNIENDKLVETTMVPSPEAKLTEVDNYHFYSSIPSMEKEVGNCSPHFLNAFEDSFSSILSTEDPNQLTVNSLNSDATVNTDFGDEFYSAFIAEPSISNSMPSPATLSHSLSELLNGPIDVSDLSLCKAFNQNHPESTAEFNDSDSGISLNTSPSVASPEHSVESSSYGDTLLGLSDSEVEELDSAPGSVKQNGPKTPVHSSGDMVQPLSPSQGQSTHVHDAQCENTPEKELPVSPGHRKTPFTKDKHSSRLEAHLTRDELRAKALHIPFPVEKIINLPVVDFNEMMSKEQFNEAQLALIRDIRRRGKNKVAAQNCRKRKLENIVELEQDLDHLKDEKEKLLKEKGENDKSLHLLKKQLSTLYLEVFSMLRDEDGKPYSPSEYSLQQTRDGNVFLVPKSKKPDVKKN
Sequence (Q14145 whole entry): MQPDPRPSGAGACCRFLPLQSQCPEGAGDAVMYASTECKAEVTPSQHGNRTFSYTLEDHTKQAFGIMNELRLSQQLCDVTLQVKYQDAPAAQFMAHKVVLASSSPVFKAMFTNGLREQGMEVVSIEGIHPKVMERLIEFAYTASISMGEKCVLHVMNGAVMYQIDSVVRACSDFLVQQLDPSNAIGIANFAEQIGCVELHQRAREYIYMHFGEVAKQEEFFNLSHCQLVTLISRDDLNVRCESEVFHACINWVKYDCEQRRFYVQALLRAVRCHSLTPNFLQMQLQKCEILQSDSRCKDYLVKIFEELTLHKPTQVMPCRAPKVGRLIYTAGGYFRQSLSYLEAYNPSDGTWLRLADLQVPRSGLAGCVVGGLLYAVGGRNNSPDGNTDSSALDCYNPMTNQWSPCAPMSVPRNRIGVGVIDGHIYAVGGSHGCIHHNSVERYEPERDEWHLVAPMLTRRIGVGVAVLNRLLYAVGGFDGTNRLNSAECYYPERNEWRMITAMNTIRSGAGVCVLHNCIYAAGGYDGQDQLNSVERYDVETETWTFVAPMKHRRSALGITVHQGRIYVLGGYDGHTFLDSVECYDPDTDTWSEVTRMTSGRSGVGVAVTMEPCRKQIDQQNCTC
Assay: Inhibition of Keap1-Nrf2 protein-protein interaction (unknown origin) preincubated for 30 mins followed by Terbium labeled anti-His antibody addition for 30 mins prior to fluorescein labeled-9mer Nrf2 peptide addition and measured after 60 mins by TR-FRET assay

SUBSTANCE_SMILES | QUANTITY_UNIT | CENSOR_SYMBOL | Ki
COc1ccc(S(=O)(=O)N(CC(=O)O)c2cc(Sc3ccccc3)c(N(CC(=O)O)S(=O)(=O)c3ccc(OC)cc3)c3ccccc23)cc1 | nM | = | 1.5
COc1ccc(S(=O)(=O)N(CC(=O)O)c2cc(CCC(=O)N3CCOCC3)c(N(CC(=O)O)S(=O)(=O)c3ccc(OC)cc3)c3ccccc23)cc1 | nM | = | 2
COc1ccc(-c2cc(N(CC(=O)O)S(=O)(=O)c3ccc(OC)cc3)c3ccccc3c2N(CC(=O)O)S(=O)(=O)c2ccc(OC)cc2)cc1 | nM | = | 4.9
COc1ccc(S(=O)(=O)N(CC(=O)O)c2cc(CCCN3C(=O)c4ccccc4C3=O)c(N(CC(=O)O)S(=O)(=O)c3ccc(OC)cc3)c3ccccc23)cc1 | nM | < | 0.1
COc1ccc(S(=O)(=O)N(CC(=O)O)c2cc(CCC(=O)NC(C)C)c(N(CC(=O)O)S(=O)(=O)c3ccc(OC)cc3)c3ccccc23)cc1 | nM | = | 4.6

====

Target: Keap1/Nrf2 (Homo sapiens) (UniProt Q16236+Q14145)
Experiment: Inhibition of Keap1-Nrf2 protein-protein interaction in human NCM460D cells assessed as increase in NQO1 gene expression at 100 uM by RT-qPCR analysis
Format: cell-based
Active and inactive are the calls of the source. The calls are words filed in the database; no cut-off is given here.
Labels: TRUE for active, FALSE for inactive

SUBSTANCE_SMILES | CLASS_LABEL
COc1ccc(S(=O)(=O)N(CC(=O)O)c2cc(CCC(=O)N3CCOCC3)c(N(CC(=O)O)S(=O)(=O)c3ccc(OC)cc3)c3ccccc23)cc1 | TRUE
COc1ccc(S(=O)(=O)N(CC(=O)O)c2cc(-c3ccc(N4C(=O)c5ccccc5C4=O)cc3)c(N(CC(=O)O)S(=O)(=O)c3ccc(OC)cc3)c3ccccc23)cc1 | TRUE
COc1ccc(S(=O)(=O)N(CC(=O)O)c2cc(CCCN3C(=O)c4ccccc4C3=O)c(N(CC(=O)O)S(=O)(=O)c3ccc(OC)cc3)c3ccccc23)cc1 | TRUE
COc1ccc(-c2cc(N(CC(=O)O)S(=O)(=O)c3ccc(OC)cc3)c3ccccc3c2N(CC(=O)O)S(=O)(=O)c2ccc(OC)cc2)cc1 | TRUE
COc1ccc(S(=O)(=O)N(CC(=O)O)c2cc(-c3ccc(C#N)cc3)c(N(CC(=O)O)S(=O)(=O)c3ccc(OC)cc3)c3ccccc23)cc1 | FALSE
